Field: relative viability. Provide a value for each of the molecules that follow.
tested on: NCI-H1915; assay: relative viability (nuclei count vs DMSO), 5 days (fraction); higher = more cells survive; details: first compound 0.04 µM
One number for each entry.

// query Entry C[C@@H]1CN(CC(=O)Nc2ccc3c(c2)Cc2cccc(-c4cc(=O)cc(N5CCOCC5)o4)c2S3)C[C@H](C)O1 + CS(=O)(=O)N1CCN(Cc2cc3nc(-c4cccc5[nH]ncc45)nc(N4CCOCC4)c3s2)CC1 [Pictilisib] (partner 1 µM) has what relative viability?
// result 0.888

For the next question, use this molecule.
// query Entry C[C@@H]1CN(CC(=O)Nc2ccc3c(c2)Cc2cccc(-c4cc(=O)cc(N5CCOCC5)o4)c2S3)C[C@H](C)O1 + Nc1ncn([C@H]2C[C@H](O)[C@@H](CO)O2)c(=O)n1 [Decitabine] (partner 2 µM) has what relative viability?
// result 0.259

====

system: ChaGo-K-1; test: relative viability (nuclei count vs DMSO), 5 days (fraction); higher = more cells survive; details: first compound 0.08 µM
readout-name: relative viability
Answers are plain numbers.

// query Entry CCCCCCCCCCCC1=C(O)C(=O)C=C(O)C1=O [Embelin] + CC(=O)Nc1cccc(-n2c(=O)n(C3CC3)c(=O)c3c(Nc4ccc(I)cc4F)n(C)c(=O)c(C)c32)c1 [Trametinib] (partner 0.02 µM) has what relative viability?
// result 0.966

Dear colleague, could you please provide relative viability for the molecules listed below?
1. CCCCCCCCCCCC1=C(O)C(=O)C=C(O)C1=O [Embelin] + Cc1nc(Nc2ncc(C(=O)Nc3c(C)cccc3Cl)s2)cc(N2CCN(CCO)CC2)n1 [Dasatinib] (partner 0.075 µM)
2. CCCCCCCCCCCC1=C(O)C(=O)C=C(O)C1=O [Embelin] + CS(=O)(=O)N1CCN(Cc2cc3nc(-c4cccc5[nH]ncc45)nc(N4CCOCC4)c3s2)CC1 [Pictilisib] (partner 1 µM)
3. CCCCCCCCCCCC1=C(O)C(=O)C=C(O)C1=O [Embelin] + Cc1cc(Nc2cc(N3CCN(C)CC3)nc(Sc3ccc(NC(=O)C4CC4)cc3)n2)n[nH]1 [Tozasertib] (partner 0.1 µM)
4. CCCCCCCCCCCC1=C(O)C(=O)C=C(O)C1=O [Embelin] + COc1cc2c(Oc3ccc(NC(=O)C4(C(=O)Nc5ccc(F)cc5)CC4)cc3F)ccnc2cc1OCCCN1CCOCC1 [Foretinib] (partner 0.25 µM)
5. CCCCCCCCCCCC1=C(O)C(=O)C=C(O)C1=O [Embelin] + CC(C)C[C@H](NC(=O)[C@H](Cc1ccccc1)NC(=O)c1cnccn1)B(O)O [Bortezomib] (partner 0.002 µM)

// result
1: 0.501; 2: 1; 3: 0.243; 4: 0.951; 5: 0.988

// query Entry CCCCCCCCCCCC1=C(O)C(=O)C=C(O)C1=O [Embelin] + CCNC(=O)c1noc(-c2cc(C(C)C)c(O)cc2O)c1-c1ccc(CN2CCOCC2)cc1 [Luminespib] (partner 0.01 µM) has what relative viability?
// result 0.529

====

system: EKVX; experiment: relative viability (nuclei count vs DMSO), 5 days (fraction); higher = more cells survive; conditions: first compound 2.53 µM
Flag rule - relative viability less than 0.9 flags label 1; the remaining entries get label 0.

A selection of reference data follows.
// query Lab note: relative viability threshold 0.9. Does this compound come in strictly under it? CCCCCCCCCCCC1=C(O)C(=O)C=C(O)C1=O [Embelin] + CS(=O)(=O)CCNCc1ccc(-c2ccc3ncnc(Nc4ccc(OCc5cccc(F)c5)c(Cl)c4)c3c2)o1 [Lapatinib] (partner 2 µM)
// result label 1

// query Then CCCCCCCCCCCC1=C(O)C(=O)C=C(O)C1=O [Embelin] + COc1cc2c(Oc3ccc(NC(=O)C4(C(=O)Nc5ccc(F)cc5)CC4)cc3F)ccnc2cc1OCCCN1CCOCC1 [Foretinib] (partner 0.25 µM) ?
// result label 1

// query Then CCCCCCCCCCCC1=C(O)C(=O)C=C(O)C1=O [Embelin] + NC(=O)Nc1cc(-c2cccc(F)c2)sc1C(=O)N[C@H]1CCCNC1 [AZD7762] (partner 0.2 µM) ?
// result label 1

// query Then CCCCCCCCCCCC1=C(O)C(=O)C=C(O)C1=O [Embelin] + O=C(c1cc(Cc2n[nH]c(=O)c3ccccc23)ccc1F)N1CCN(C(=O)C2CC2)CC1 [Olaparib] (partner 8 µM) ?
// result label 0

Next, consider the following compound.
// query Lab note: relative viability threshold 0.9. Does this compound come in strictly under it? CCCCCCCCCCCC1=C(O)C(=O)C=C(O)C1=O [Embelin] + C[C@]1(O)C[C@@H](c2nc(-c3ccc4ccc(-c5ccccc5)nc4c3)c3c(N)nccn32)C1 [Linsitinib] (partner 1 µM)
// result label 0
